Please go through the items and note down their inhibition.
- measurement target: Leucine aminopeptidase (Plasmodium falciparum (isolate 3D7)) (UniProt Q8IL11)
- Sequence (Q8IL11 whole entry, looked up): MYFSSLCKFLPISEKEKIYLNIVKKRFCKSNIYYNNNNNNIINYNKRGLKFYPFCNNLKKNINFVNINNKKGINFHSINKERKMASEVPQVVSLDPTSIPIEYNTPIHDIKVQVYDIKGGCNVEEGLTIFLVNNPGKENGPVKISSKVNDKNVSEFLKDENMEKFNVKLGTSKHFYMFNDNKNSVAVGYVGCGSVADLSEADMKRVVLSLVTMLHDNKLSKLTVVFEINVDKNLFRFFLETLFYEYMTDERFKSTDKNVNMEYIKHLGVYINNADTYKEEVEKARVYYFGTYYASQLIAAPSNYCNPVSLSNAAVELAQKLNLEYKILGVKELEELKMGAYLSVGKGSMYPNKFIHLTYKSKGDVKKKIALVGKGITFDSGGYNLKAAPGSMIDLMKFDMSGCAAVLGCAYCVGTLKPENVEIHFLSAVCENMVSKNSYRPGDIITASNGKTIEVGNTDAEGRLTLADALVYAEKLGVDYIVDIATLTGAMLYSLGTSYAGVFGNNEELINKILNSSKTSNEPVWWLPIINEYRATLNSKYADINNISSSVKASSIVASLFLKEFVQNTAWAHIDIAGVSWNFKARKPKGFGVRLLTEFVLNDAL
- assay text: P. falciparum M17LAP inhibitors, primary screen, biochemical, fluorogenic H-Leu-NHMec substrate, 1536-well (AID 1619);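 note: plate controls were full reaction with DMSO carrier for no effect and no enzyme background for full effect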
- condition label: recombinant M17LAP, H-Leu-NHMec fluorogenic kinetic assay; at 30 µM; hits give high values
Out of some 220,000 compounds screened, about 830 (0.38%) were called active. Only a sample is shown. Results with a measured potency or affinity are listed apart.
One number for each entry, in %.

Worked examples follow.
{"molecule": "Cc1ccc2nc(SCCC(=O)O)cc(C)c2c1", "inhibition / %": 43.9}
{"molecule": "Nc1nc(-c2ccccc2Br)cs1", "inhibition / %": -3.14}
{"molecule": "Cn1c(=O)c(-c2cc(Br)ccc2N)nc2ccccc21", "inhibition / %": 9.54}
{"molecule": "CC(C)c1ccc(-c2nc(N3CCCCCC3)nc3n[nH]c(N)c23)cc1", "inhibition / %": 35.4}
{"molecule": "COc1ccc(-c2noc(=O)[nH]2)cc1", "inhibition / %": -9.72}

Hi team, please reply with inhibition for each item in this list.
1. COc1ccc(-c2cc(C(F)(F)F)nc(N3CCOCC3)n2)cc1
2. Cc1cc(C)nc(Nc2n[nH]c(-c3ccccc3Br)n2)n1
3. N#Cc1ccc(C(=O)CSc2n[nH]c(=O)n2Cc2ccco2)cc1
4. [N-]=C=C1C(=S)NC(=O)[C@H]([n+]2ccccc2)[C@H]1c1ccc(Cl)cc1
5. Cc1nn(-c2ccccc2)c(Cl)c1/C=C(\C#N)C(=O)NC(C)C
6. CSc1nsc(SC)c1CO
7. CC(C)c1nc(SCC(=O)Nc2ccc3c(c2)OCCO3)n[nH]1
8. NNC(=O)c1ccc(COc2ccc3ccccc3c2)o1

[4.95, -2.55, -0.26, 6.14, 0.39, -0.7, 20.1, 7.87]

---

Give inhibition for every item shown.
- measurement target: Leucine aminopeptidase (Plasmodium falciparum (isolate 3D7)) (UniProt Q8IL11)
- assay text: P. falciparum M17LAP inhibitors, primary screen, biochemical, fluorogenic H-Leu-NHMec substrate, 1536-well (AID 1619);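 note: plate controls were full reaction with DMSO carrier for no effect and no enzyme background for full effect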
- condition label: recombinant M17LAP, H-Leu-NHMec fluorogenic kinetic assay; at 30 µM; hits give high values
Out of some 220,000 compounds screened, about 830 (0.38%) were called active. Not all results are given here. Measured potencies and affinities stand elsewhere.
Give bare numbers, in %.

# per-item lookup of inhibition; items listed below
1. CCCCc1ccc(NC(=O)N[C@@H](CC(C)C)C(=O)O)cc1
2. CCc1ccc(C(=O)NC(C(=O)O)C(C)C)cc1 (stereo not drawn)
3. Cc1ccc(C)c(NC(=O)CSc2nnc(-c3ccco3)o2)c1

-4.28
56.2
1.4

---

- measurement target: Leucine aminopeptidase (Plasmodium falciparum (isolate 3D7)) (UniProt Q8IL11)
- assay text: P. falciparum M17LAP inhibitors, primary screen, biochemical, fluorogenic H-Leu-NHMec substrate, 1536-well (AID 1619);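 note: plate controls were full reaction with DMSO carrier for no effect and no enzyme background for full effect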
- condition label: recombinant M17LAP, H-Leu-NHMec fluorogenic kinetic assay; at 30 µM; hits give high values
The campaign covered roughly 220,000 compounds. About 830 (0.38%) were called active. These entries were drawn from the full list. Measured potencies and affinities stand elsewhere.
Hi there, I'd appreciate the recorded inhibition for every entry that follows.
One number for each entry, in %.

In the examples that follow, each entry is paired with its recorded inhibition.
{"compound": "CC(C)(C)c1ccc(C(=O)CSc2n[nH]c(=O)[nH]c2=O)cc1", "unit symbol": "%", "value": -4.96}
{"compound": "COCCNc1nc2nonc2nc1N1C[C@H]2CC[C@H]1C2", "unit symbol": "%", "value": 8.08}
{"compound": "CCOC(=O)N1CCN(C(=O)c2ccc(CS(=O)(=O)c3c(Cl)cccc3Cl)o2)CC1", "unit symbol": "%", "value": 3.87}
{"compound": "CC1CN(C(=O)N2CCOCC2)CCN1C(=O)N1CCOCC1 (stereo not drawn)", "unit symbol": "%", "value": -0.08}
{"compound": "CSCCC(NC(=O)c1ccc(C)o1)C(=O)O (stereo not drawn)", "unit symbol": "%", "value": -6.5}

Give measured inhibition for every item shown.
1. O=C(NC1CCS(=O)(=O)C1)c1cn(-c2ccccc2)nc1-c1ccccc1 (stereo not drawn)
2. CC(=O)C1=C(O)C(=O)N(CCCO)C1c1ccccc1 (stereo not drawn)
3. COc1cc2c(cc1NC(=O)/C=C/c1ccc([N+](=O)[O-])cc1)oc1ccccc12

[-4.23, 27.1, -1.67]

Count: 4. Required value per item: inhibition.
1. O=C(O)c1ccc2c(c1)SC1=NS(=O)(=O)CCN12
2. O=C(NC(=S)NNS(=O)(=O)c1ccccc1)c1ccc([N+](=O)[O-])cc1
3. CSCCC(NC(=O)c1cc(C)oc1C)C(=O)O (stereo not drawn)
4. O=C(CSC1=NCCN1)Nc1cccc(C(F)(F)F)c1

-2.18
21.4
5.74
-6.47

Batch lookup, inhibition per entry.
1. CC(C)(C)C(=O)N1N=C(c2cccc(NS(C)(=O)=O)c2)CC1c1cccs1 (stereo not drawn)
2. CCCn1ncc(CN2CCN(Cc3ccsc3)C(CCO)C2)c1C (stereo not drawn)
3. Cc1ccc(-c2ccc(/C=N/N3C(=O)C4C5C=CC(CC5)C4C3=O)o2)c([N+](=O)[O-])c1 (stereo not drawn)
4. CCCc1[nH]nc2c1C(c1ccncc1)C(C#N)=C(N)O2 (stereo not drawn)
5. N#CC1=C(N)Oc2n[nH]c(-c3ccccc3)c2C1c1ccncc1 (stereo not drawn)

1. 29.7
2. -4.96
3. 5.1
4. 30.1
5. 62.5

I have 6 compounds here; please give me inhibition for each one.
1. O=C(c1ccc(Br)cc1)c1cc(-c2ccccn2)c(N2CCOCC2)s1
2. CCc1nnc(SCC(=O)Nc2ccccc2)nc1CC
3. Cc1[nH]nc2c1C(c1ccsc1)C(C#N)=C(N)O2 (stereo not drawn)
4. COc1ccc2nc(N3CCCCC3)c(/C=C3\SC(=S)NC3=O)cc2c1
5. CC1=C(C(=O)Nc2ccccc2)C(c2ccc(Cl)cc2)n2c(s/c(=C/c3cccc(OCC(=O)O)c3)c2=O)=N1 (stereo not drawn)
6. Cc1noc(C)c1CSCc1ccc(Cl)cc1

[5.58, 21.8, 29.4, 15.3, 4.09, 2.99]

Each compound below has a recorded value; state its inhibition.
1. COc1cc(NC(=O)CSc2nccc(C)n2)c(C(=O)O)cc1OC
2. Cc1nc2ccccc2c2c1C(=O)NC2=O
3. O=C1NC(=S)S/C1=C\c1cc2ccccc2nc1N1CCCCC1
4. COc1ccc(-n2c(C)cc(/C=C(\C#N)C(=O)NCc3ccco3)c2C)cc1

1. 43.1
2. -0.48
3. 8.4
4. -8.8

Please supply inhibition for each of the following items, keeping them in order.
1. O=C(NCc1ccc2c(c1)OCO2)C1CCC(CNc2c(N3CCCC3)c(=O)c2=O)CC1 (stereo not drawn)
2. CC1(OC(=O)C2CCCC2)C(=O)C=C2C=C(c3ccsc3)N(c3ccccc3)C=C2C1=O (stereo not drawn)
3. C/C(=N\O)c1oc2ccc3c(C)cc(=O)oc3c2c1C
4. Cc1ccnc2ccc(SC(F)(F)F)cc12
5. O=C(CCC(=O)Nc1ccccc1)NNC(=O)c1ccccc1Cl
6. Cc1ccc(C(=O)CSc2n[nH]c(C)n2)cc1

1. 9.79
2. -5.77
3. 2.81
4. 1.01
5. -1.79
6. 46.4

---

For each of the molecules below, state its inhibition.
- measurement target: Leucine aminopeptidase (Plasmodium falciparum (isolate 3D7)) (UniProt Q8IL11)
- assay text: P. falciparum M17LAP inhibitors, primary screen, biochemical, fluorogenic H-Leu-NHMec substrate, 1536-well (AID 1619);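 note: plate controls were full reaction with DMSO carrier for no effect and no enzyme background for full effect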
- condition label: recombinant M17LAP, H-Leu-NHMec fluorogenic kinetic assay; at 30 µM; hits give high values
In all, about 220,000 compounds went through this assay and about 830 (0.38%) were called active. The list is a sample of the results. Measured potencies and affinities stand elsewhere.
One number for each entry, in %.

{"record smiles": "O=C1c2ccccc2C(=O)N1CSc1nnc(Nc2ccccc2F)s1", "unit symbol": "%", "inhibition": 4.65}
{"record smiles": "COc1ccccc1C(=O)N1CCN(Cc2nc3cc([N+](=O)[O-])ccc3n2C)CC1", "unit symbol": "%", "inhibition": 6.22}
{"record smiles": "COc1ccccc1NS(=O)(=O)c1cccc(C(=O)N/N=C/c2ccccc2OCC(=O)O)c1", "unit symbol": "%", "inhibition": 16.5}
{"record smiles": "COC(=O)/C(=C/c1ccccc1)NC(=O)c1ccco1", "unit symbol": "%", "inhibition": 0.48}
{"record smiles": "O=C(CNC(=O)c1ccc([N+](=O)[O-])cc1)N/N=C\\c1ccc(OC(=O)c2ccccc2)cc1", "unit symbol": "%", "inhibition": -2.63}
{"record smiles": "CCOC(=O)C1(CC2CC2)CCN(Cc2cn[nH]c2-c2cccc(F)c2)CC1", "unit symbol": "%", "inhibition": -3.31}

Field: inhibition. Fill in for each record below.
1. COC(=O)c1c(NC(=O)/C=C/C(=O)O)sc(C)c1-c1ccc(C)cc1
2. O=C(N/N=C/c1cccs1)c1c[nH]c2ccccc12

14.7
19.5
